# protocol-details: chemical genetic growth profiling, strain panel (AID 1159580);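 also: tested at 20 µM; growth read once vehicle control cultures reached saturation at 30 °C; lower values mean less growth of the strain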
# measurement-context: S. cerevisiae deletion strains, growth OD, locus YBL061C, strain skt5
Screen size: about 5,500 compounds; about 2,000 (36%) were called active. Another 18% or so got no clear call; they are omitted. Rule as the data show it: active = normalized growth mostly below about 0.91 (no sharp cut-off); inconclusive = no clear call, values can overlap the other calls; inactive = mostly above about 0.92. The list shows a part of the results.
// one of active, inactive, no free text

Just curious, what result did C=CC(C1=CC(=O)C(OC)=CC1=O)c1ccc(O)cc1 (centres undefined) get here? inactive

Just curious, what result did CC(=O)O[C@@H]1C[C@@]2(C)[C@H](c3ccoc3)C[C@H]3O[C@]32[C@]2(C)C(=O)C(O)=C3C(C)(C)C(=O)C=C[C@]3(C)C12 (some centres undefined) get here? inactive

Just curious, what result did C[C@H]1[C@H]2CCC3C4CC=C5C[C@@H](N(C)C)CC[C@]5(C)C4CC[C@@]32CN1C (some centres undefined) get here? inactive

Just curious, what result did C=CC(C1=CC(=O)C(OC)=CC1=O)c1ccc(OC)cc1 (centres undefined) get here? active

Just curious, what result did CC(=O)O[C@@H]1CC2C(C)(C)C=CC(=O)[C@]2(C)C2CC[C@@]3(C)[C@H](c4ccoc4)OC(=O)C4OC43[C@@]21C (some centres undefined) get here? inactive

Just curious, what result did C=C[C@@H](C1=CC(=O)C(OC)=C(OC)C1=O)c1ccccc1 get here? active

Just curious, what result did CC1(C)C(=O)C=C[C@@]2(C)C1=C(O)C(=O)[C@]1(C)C2CC[C@@]2(C)[C@H](c3ccoc3)C[C@H]3O[C@]321 (some centres undefined) get here? active

Just curious, what result did O=C(O)/C=C/C=C/c1ccccc1 get here? active

Just curious, what result did CN[C@H](CC(=O)O)C(=O)O get here? inactive
